System: rodent lifetime carcinogenesis bioassay, tumor incidence TD50
Assay Text: carcinogenic potency in animals, long-term in vivo studies, CPDB compilation (AID 1745844)
Condition Description: mouse; strain B6C3F1; males; in feed; site: lung; lesion: alveolar/bronchiolar adenoma + alveolar/bronchiolar carcinoma; dosed 105 weeks; study length 105 weeks
Measurement Type: TD50 (mg/kg/day)
Reply with just the number (in mg/kg/day).

Brc1cc(Br)c(-c2cc(Br)c(Br)cc2Br)cc1Br :: 54.9

// next item, TD50 requested
Qu. Which measured TD50 belongs to NC(=O)c1ccccc1C(N)=O , tested on rodent lifetime carcinogenesis bioassay, tumor incidence TD50?
Ans. 35800
